target: kinases (kinome) (Homo sapiens); construct: determined in kinobeads assays with mass spectrometry detection of kinases as described previously; endogenous in cells; experiment: kinobeads assay with mass spectrometry detection of kinases (kinase selectivity profile); conditions: RSK2 (AGC), IPI00020898
pIC50: −log10 of the molar value.
MEASUREMENT KIND: pIC50

SMILES RECORD	EXPERIMENTAL SYSTEM	MEASUREMENT
C[C@H]1COCCN1c1nc(-c2ccc(NC(=O)NC3CC3)cc2)cc(-c2ccccc2S(C)(=O)=O)n1	kinases (kinome) (Homo sapiens)	< 5.00

*Q* Record request: pIC50 value, item C[C@H]1COCCN1c1nc(-c2ccc(NC(=O)NC3CC3)cc2)cc(-c2cc(F)ccc2S(C)(=O)=O)n1
*A* < 5.00

====

target: kinases (kinome) (Homo sapiens, UniProt Q92918); construct: determined in kinobeads assays with mass spectrometry detection of kinases as described previously; endogenous in cells; assay: kinobeads assay with mass spectrometry detection of kinases (kinase selectivity profile); settings: HPK1 (STE), IPI00020258
Sequence (Q92918 whole entry): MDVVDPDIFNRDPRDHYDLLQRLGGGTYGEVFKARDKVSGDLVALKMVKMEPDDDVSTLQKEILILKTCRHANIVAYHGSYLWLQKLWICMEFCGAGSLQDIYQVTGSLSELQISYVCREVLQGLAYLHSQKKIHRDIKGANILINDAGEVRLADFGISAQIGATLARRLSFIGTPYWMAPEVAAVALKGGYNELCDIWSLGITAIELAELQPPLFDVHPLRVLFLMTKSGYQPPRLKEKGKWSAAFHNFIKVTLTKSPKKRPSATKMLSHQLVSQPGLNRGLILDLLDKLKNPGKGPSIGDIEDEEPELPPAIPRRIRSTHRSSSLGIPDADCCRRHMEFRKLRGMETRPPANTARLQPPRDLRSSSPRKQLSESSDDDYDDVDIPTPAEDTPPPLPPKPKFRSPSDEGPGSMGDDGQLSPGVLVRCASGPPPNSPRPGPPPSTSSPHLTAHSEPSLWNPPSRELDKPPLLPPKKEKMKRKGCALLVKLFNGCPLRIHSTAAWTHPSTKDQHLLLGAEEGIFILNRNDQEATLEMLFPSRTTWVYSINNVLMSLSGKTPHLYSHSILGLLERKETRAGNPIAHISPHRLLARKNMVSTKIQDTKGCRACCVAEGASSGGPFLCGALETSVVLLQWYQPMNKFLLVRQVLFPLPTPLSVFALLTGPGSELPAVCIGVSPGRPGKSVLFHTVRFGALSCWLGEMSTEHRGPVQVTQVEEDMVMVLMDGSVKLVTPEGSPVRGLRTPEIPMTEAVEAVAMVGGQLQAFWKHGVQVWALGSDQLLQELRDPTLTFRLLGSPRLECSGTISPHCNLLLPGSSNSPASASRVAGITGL
MEASUREMENT KIND: IC50

See these solved cases before continuing.
SMILES RECORD	EXPERIMENTAL SYSTEM	IC50
C[C@H]1COCCN1c1cc(-c2ccccc2S(C)(=O)=O)nc(-c2ccc(NC(=O)NC3CC3)cc2)n1	kinases (kinome) (Homo sapiens, UniProt Q92918)	> 10 µM
C[C@H]1COCCN1c1nc(-c2ccc(NC(=O)NC3CC3)cc2)cc(-c2cc(F)ccc2S(C)(=O)=O)n1	kinases (kinome) (Homo sapiens, UniProt Q92918)	> 10 µM

Now for a further compound.
*Q* Suppose we examine the compound CCNC(=O)Nc1ccc(-c2cc(-c3ccccc3C#N)nc(N3CCOC[C@@H]3C)n2)cc1 ; what IC50 value has been reported?
*A* > 10 µM

====

target: kinases (kinome) (Homo sapiens, UniProt Q06187); construct: determined in kinobeads assays with mass spectrometry detection of kinases as described previously; endogenous in cells; test: kinobeads assay with mass spectrometry detection of kinases (kinase selectivity profile); conditions: BTK (TK), IPI00029132
Sequence (Q06187 whole entry): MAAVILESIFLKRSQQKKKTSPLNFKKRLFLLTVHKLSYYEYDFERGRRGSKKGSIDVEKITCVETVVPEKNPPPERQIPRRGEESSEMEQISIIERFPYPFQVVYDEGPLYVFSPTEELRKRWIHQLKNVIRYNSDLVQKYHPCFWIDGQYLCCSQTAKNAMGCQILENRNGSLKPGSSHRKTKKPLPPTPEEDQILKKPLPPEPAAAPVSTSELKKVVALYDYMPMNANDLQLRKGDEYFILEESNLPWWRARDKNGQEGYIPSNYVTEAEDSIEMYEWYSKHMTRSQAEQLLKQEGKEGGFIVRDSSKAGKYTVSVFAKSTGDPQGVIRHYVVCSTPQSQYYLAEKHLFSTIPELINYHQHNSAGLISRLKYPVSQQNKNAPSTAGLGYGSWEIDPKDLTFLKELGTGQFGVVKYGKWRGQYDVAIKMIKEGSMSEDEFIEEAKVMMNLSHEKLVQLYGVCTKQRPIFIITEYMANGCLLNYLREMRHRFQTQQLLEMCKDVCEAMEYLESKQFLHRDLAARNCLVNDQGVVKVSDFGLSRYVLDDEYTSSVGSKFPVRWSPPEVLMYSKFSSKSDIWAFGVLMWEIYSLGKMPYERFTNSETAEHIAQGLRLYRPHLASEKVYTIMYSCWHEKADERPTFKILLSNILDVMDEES
Overview of reported IC50 across a group of molecules:

*Q* Recall the recorded IC50 for CCNC(=O)Nc1ccc(-c2cc(-c3ccccc3C#N)nc(N3CCOC[C@@H]3C)n2)cc1 [Example 8] with kinases (kinome) (Homo sapiens, UniProt Q06187) and state it.
*A* > 10 µM

*Q* // map C[C@H]1COCCN1c1nc(-c2ccc(NC(=O)NC3CC3)cc2)cc(-c2cc(F)ccc2S(C)(=O)=O)n1 [Example 40] to recorded IC50 (system: kinases (kinome) (Homo sapiens, UniProt Q06187))
*A* > 10 µM

*Q* # returns recorded IC50 (system: kinases (kinome) (Homo sapiens, UniProt Q06187)) for C[C@H]1COCCN1c1cc(-c2ccccc2S(C)(=O)=O)nc(-c2ccc(NC(=O)NC3CC3)cc2)n1 [Example 6]
*A* > 10 µM

*Q* Write down the reported IC50 of C[C@H]1COCCN1c1cc(-c2ccccn2)nc(-c2ccc(NC(=O)NCCO)cc2)n1 [Example 43] , test system: kinases (kinome) (Homo sapiens, UniProt Q06187).
*A* > 10 µM

*Q* Quick check: IC50 on kinases (kinome) (Homo sapiens, UniProt Q06187), item C[C@H]1COCCN1c1nc(-c2ccc(NC(=O)NC3CC3)cc2)cc(-c2cccnc2S(C)(=O)=O)n1 [Example 46] ?
*A* > 10 µM

*Q* Lab request: please report IC50 under test system kinases (kinome) (Homo sapiens, UniProt Q06187) for C[C@H]1COCCN1c1nc(-c2ccc(NC(=O)N[C@H]3CCC[C@@H]3O)cc2)cc(-c2cc(F)ccc2S(C)(=O)=O)n1 [Example 76]
*A* > 10 µM

*Q* Recall the recorded IC50 for C[C@H]1COCCN1c1nc(-c2ccc(NC(=O)NC3CC3)cc2)cc(-c2ccccc2S(C)(=O)=O)n1 [Example 4] with kinases (kinome) (Homo sapiens, UniProt Q06187) and state it.
*A* > 10 µM

Entry source: patent US9249129B2
